test: Water solubility (spectrophotometric, HPLC); type: physicochemical; conditions: LAC-34 as free base
Test Readout: solubility (µg/mL)
All answers are understood in µg/mL, so give the number only.

# Molecule, solubility, µg/mL
rows = [
    ("c1ccc(N(CCC2CCCCN2)C2Cc3ccccc3C2)cc1 (racemic) [LAC-34]", 5),
]

Value lookup for solubility; key = CCCCNc1ccc(C(=O)OCCN(C)C)cc1 [Tetracaine, reference compound]
356

###

target: human NaV1.5 channels (Homo sapiens); test: NaV1.5 electrophysiology (patch clamp) in HEK-293 cells
Sequence (Q14524 whole entry): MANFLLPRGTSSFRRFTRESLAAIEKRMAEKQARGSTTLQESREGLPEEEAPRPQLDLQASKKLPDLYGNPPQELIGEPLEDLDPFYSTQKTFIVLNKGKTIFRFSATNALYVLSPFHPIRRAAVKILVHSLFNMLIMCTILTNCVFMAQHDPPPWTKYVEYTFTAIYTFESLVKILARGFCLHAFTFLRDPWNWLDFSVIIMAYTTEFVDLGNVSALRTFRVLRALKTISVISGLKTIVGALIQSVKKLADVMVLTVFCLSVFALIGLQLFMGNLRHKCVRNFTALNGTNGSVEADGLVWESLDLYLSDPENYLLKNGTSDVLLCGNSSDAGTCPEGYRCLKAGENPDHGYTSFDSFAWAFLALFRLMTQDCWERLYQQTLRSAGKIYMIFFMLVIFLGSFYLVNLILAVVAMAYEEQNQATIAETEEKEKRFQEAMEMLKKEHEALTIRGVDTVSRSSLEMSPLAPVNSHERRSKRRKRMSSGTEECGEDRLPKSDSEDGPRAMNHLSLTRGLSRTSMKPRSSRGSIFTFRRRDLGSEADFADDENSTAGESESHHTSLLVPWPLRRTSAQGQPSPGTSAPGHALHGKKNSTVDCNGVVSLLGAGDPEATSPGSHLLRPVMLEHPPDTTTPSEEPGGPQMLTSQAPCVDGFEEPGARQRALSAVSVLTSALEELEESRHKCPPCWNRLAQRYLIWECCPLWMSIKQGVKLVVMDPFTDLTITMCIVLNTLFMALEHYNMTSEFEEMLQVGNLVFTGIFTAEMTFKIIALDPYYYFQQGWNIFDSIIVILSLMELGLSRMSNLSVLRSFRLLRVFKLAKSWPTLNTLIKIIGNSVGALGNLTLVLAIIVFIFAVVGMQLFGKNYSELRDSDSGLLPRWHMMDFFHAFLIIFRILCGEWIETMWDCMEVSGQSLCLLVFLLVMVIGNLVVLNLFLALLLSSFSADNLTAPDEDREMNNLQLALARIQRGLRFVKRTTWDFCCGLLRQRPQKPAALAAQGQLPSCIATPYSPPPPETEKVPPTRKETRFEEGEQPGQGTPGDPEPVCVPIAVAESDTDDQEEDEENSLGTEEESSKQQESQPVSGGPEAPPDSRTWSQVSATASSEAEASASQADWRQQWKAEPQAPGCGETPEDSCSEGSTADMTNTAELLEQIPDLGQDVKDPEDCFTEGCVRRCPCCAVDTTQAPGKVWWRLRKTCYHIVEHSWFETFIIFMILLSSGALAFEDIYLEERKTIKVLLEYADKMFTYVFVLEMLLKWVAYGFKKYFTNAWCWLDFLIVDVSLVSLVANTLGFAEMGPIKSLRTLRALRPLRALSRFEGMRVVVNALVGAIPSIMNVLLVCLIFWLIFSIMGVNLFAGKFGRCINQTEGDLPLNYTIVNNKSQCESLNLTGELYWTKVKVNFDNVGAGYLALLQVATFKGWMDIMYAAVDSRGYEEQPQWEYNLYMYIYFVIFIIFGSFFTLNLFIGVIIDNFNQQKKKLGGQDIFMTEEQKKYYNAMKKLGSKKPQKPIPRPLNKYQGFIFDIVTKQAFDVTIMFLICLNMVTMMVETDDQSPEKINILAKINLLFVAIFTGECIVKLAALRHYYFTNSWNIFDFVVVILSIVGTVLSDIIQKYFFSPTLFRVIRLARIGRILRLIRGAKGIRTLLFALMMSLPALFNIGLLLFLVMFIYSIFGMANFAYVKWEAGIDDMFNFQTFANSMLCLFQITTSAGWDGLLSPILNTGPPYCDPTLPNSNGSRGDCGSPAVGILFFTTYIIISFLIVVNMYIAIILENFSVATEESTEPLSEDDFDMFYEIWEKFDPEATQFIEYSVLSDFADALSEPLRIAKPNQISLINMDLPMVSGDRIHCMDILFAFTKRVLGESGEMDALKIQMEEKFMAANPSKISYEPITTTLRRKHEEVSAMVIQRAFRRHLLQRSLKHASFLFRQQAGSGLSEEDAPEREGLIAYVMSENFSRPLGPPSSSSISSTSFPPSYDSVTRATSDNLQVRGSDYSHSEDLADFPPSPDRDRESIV
Test Readout: IC50 (nM)
All answers are understood in nM, so give the number only.

Value lookup for IC50; key = c1ccc(N(CCC2CCCCN2)C2Cc3ccccc3C2)cc1 (racemic)
600
